- ASSAY_SYSTEM: T1, PRPF40A WW12 (tandem WW domains, residues 141-236) (human, UniProt O75400 141-236)
- T1 construct: A few vector residues probably remain at the N-terminus after TEV cleavage (pETM11, NcoI site); 15N-labelled in the NMR experiments; also called PRPF40A WW tandem; WW12 wt; source: E. coli BL21(DE3), purified (Ni-NTA, TEV digestion, reverse Ni-NTA, SEC); not shown: His6, N-terminal, cleaved
- T1 sequence (O75400 141-236): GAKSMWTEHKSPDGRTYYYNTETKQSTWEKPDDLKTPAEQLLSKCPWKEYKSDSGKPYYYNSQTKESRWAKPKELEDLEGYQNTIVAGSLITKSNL
- ASSAY_DETAILS: ITC; PRPF40A construct (WW12, N-ext-WW12 or its mutant) in the cell, GB1-SF1 or GB1-SF3A1 construct in the syringe (as shown in Supplementary Figures 16 and 21); 25 °C, 20 mM sodium phosphate pH 6.5, 100 mM NaCl; one-site binding model; at least duplicates; affinities apparent
- CONDITION_LABEL: both partners purified
Please respond with reported stoichiometry N for every item in the list.
The reply should contain only the number, in sites.

Query :: Any idea what stoichiometry N was measured for GB1-SF1 Pro CD (residues 539-639) (domain or fragment, UniProt Q15637 539-639, looked up, splicing factor 1 (SF1), residues 539-639; His6-GB1-TEV site cassette of the pET24 vector, not cleaved; source: E. coli BL21(DE3), purified (Ni-NTA, SEC); not shown: GB1, N-terminal, kept) GSIPPWQQQQAAAAASPGAPQMQGNPTMVPLPPGVQPPLPPGAPPPPPPPPPGSAGMMYAPPPPPPPPMDPSNFVTMMGMGVAGMPPFGMPPAPPPPPPQN ?
Result :: 0.39

Query :: Now the binder GB1-SF3A1 C-ter Pro (residues 552-683) (domain or fragment, UniProt Q15459 552-683, looked up, His6-GB1-TEV site cassette of the pET24 vector, not cleaved; source: E. coli BL21(DE3), purified (Ni-NTA, SEC); not shown: GB1, N-terminal, kept) EIPQQPPPPSSATNIPSSAPPITSVPRPPTMPPPVRTTVVSAVPVMPRPPMASVVRLPPGSVIAPMPPIIHAPRINVVPMPPSAPPIMAPRPPPMIVPTAFVPAPPVAPVPAPAPMPPVHPPPPMEDEPTSK
Result :: 0.27

Query :: Now the binder EGQKVPPPPETPMPPPLPPTPDQVIVRKDYDPKASKPLPPAPAPDEYLVS (domain or fragment, UniProt Q15459 364-413, looked up, SF3A1 (U2 snRNP component), proline-rich region, residues 364-413; His6-GB1-TEV site cassette of the pET24 vector, not cleaved; source: E. coli BL21(DE3), purified (Ni-NTA, SEC); not shown: GB1, N-terminal, kept) [GB1-SF3A1 Middle Pro (residues 364-413)]
Result :: 0.56

Query :: Now the binder GB1-SF1 Pro ABCD (residues 410-639) (domain or fragment, UniProt Q15637 410-639, looked up, splicing factor 1 (SF1), residues 410-639, the complete proline-rich C-terminal region; His6-GB1-TEV site cassette of the pET24 vector, not cleaved; source: E. coli BL21(DE3), purified (Ni-NTA, SEC); not shown: GB1, N-terminal, kept) GHPMQHNPNGPPPPWMQPPPPPMNQGPHPPGHHGPPPMDQYLGSTPVGSGVYRLHQGKGMMPPPPMGMMPPPPPPPSGQPPPPPSGPLPPWQQQQQQPPPPPPPSSSMASSTPLPWQQNTTTTTTSAGTGSIPPWQQQQAAAAASPGAPQMQGNPTMVPLPPGVQPPLPPGAPPPPPPPPPGSAGMMYAPPPPPPPPMDPSNFVTMMGMGVAGMPPFGMPPAPPPPPPQN
Result :: 0.28

Query :: Now the binder GB1-SF1 Pro BCD (residues 468-639) (domain or fragment, UniProt Q15637 468-639, looked up, splicing factor 1 (SF1), residues 468-639; His6-GB1-TEV site cassette of the pET24 vector, not cleaved; source: E. coli BL21(DE3), purified (Ni-NTA, SEC); not shown: GB1, N-terminal, kept) GMMPPPPMGMMPPPPPPPSGQPPPPPSGPLPPWQQQQQQPPPPPPPSSSMASSTPLPWQQNTTTTTTSAGTGSIPPWQQQQAAAAASPGAPQMQGNPTMVPLPPGVQPPLPPGAPPPPPPPPPGSAGMMYAPPPPPPPPMDPSNFVTMMGMGVAGMPPFGMPPAPPPPPPQN
Result :: 0.28

Query :: Now the binder GB1-SF1 Pro BC (residues 468-594) (domain or fragment, UniProt Q15637 468-594, looked up, splicing factor 1 (SF1), residues 468-594; His6-GB1-TEV site cassette of the pET24 vector, not cleaved; also called SF1 BC; source: E. coli BL21(DE3), purified (Ni-NTA, SEC); not shown: GB1, N-terminal, kept) GMMPPPPMGMMPPPPPPPSGQPPPPPSGPLPPWQQQQQQPPPPPPPSSSMASSTPLPWQQNTTTTTTSAGTGSIPPWQQQQAAAAASPGAPQMQGNPTMVPLPPGVQPPLPPGAPPPPPPPPPGSAG
Result :: 0.53

Reference source: paper PMC11079029
